Biological target: T1, full-length beta-Catenin (Uniprot ID P35222) (Homo sapiens (Human), UniProt P35222 2-781)
T1 construct: Used full-length in both the FP and the AlphaScreen assay; also called B-Catenin; bCat
T1 sequence: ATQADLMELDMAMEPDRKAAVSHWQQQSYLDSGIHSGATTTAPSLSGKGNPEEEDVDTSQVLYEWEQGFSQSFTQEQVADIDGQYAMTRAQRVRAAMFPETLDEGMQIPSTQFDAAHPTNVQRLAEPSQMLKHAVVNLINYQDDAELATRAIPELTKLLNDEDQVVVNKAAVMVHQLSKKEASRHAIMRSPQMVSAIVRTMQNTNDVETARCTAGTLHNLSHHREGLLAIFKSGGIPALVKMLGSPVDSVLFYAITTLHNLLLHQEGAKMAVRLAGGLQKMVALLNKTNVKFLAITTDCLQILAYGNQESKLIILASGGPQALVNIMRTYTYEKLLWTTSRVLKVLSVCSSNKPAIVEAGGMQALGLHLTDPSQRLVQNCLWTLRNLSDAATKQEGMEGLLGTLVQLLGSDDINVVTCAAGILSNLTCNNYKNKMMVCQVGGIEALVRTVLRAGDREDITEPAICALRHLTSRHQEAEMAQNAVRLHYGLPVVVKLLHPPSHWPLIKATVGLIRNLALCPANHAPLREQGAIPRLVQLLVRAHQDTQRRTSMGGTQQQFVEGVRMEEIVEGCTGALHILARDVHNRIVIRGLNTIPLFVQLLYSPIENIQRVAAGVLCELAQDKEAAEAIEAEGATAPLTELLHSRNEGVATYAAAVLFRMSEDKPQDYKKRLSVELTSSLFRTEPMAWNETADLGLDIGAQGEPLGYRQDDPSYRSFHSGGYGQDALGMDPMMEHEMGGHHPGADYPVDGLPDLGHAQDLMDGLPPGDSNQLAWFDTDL
Test: AlphaScreen competition; full-length beta-catenin, biotin-TCF4(10-53) probe
pEC50: −log10 of the molar value. Starred links: 1 amine or outer side, 2 acyl side, 3 side chain; linkers in the order of their positions; H or OH if unused. Positions of bridges follow the written chain, without caps; N, C: chain ends. Non-standard residues stand in square brackets, D forms with d. Primed or numbered codes have the meaning given here. SeN″ = (S)-5-(((allyloxy)carbonyl)(methyl)amino)-2-amino-2-methylpentanoic acid (stapling residue), C=CCOC(=O)N(C)CCC[C@](C)(N[*:1])C(=O)[*:2]; RdN″ = (R)-4-(((allyloxy)carbonyl)(methyl)amino)-2-amino-2-methylbutanoic acid (stapling residue), C=CCOC(=O)N(C)CC[C@@](C)(N[*:1])C(=O)[*:2]; B5(4) = 2,2-bis(4-pentenyl)glycine = 2-amino-2-(pent-4-en-1-yl)hept-6-enoic acid (stitching residue), C=CCCCC(CCCC=C)(N[*:1])C(=O)[*:2]; PyrS(3) = (S)-1-((allyloxy)carbonyl)-3-aminopyrrolidine-3-carboxylic acid, stapling residue, C=CCOC(=O)N1CC[C@@](N[*:1])(C(=O)[*:2])C1; PyrS″ = (S)-1-((allyloxy)carbonyl)-3-aminopyrrolidine-3-carboxylic acid (stapling residue), C=CCOC(=O)N1CC[C@@](N[*:1])(C(=O)[*:2])C1; B5(21) = 2-amino-2-(pent-4-en-1-yl)hept-6-enoic acid, bis(4-pentenyl)glycine (stitching residue), C=CCCCC(CCCC=C)(N[*:1])C(=O)[*:2]; RdN = (R)-4-(((allyloxy)carbonyl)(methyl)amino)-2-amino-2-methylbutanoic acid, C=CCOC(=O)N(C)CC[C@@](C)(N[*:1])C(=O)[*:2]; SdN = (S)-4-(((allyloxy)carbonyl)(methyl)amino)-2-amino-2-methylbutanoic acid, C=CCOC(=O)N(C)CC[C@](C)(N[*:1])C(=O)[*:2]; PyrS = (S)-1-((allyloxy)carbonyl)-3-aminopyrrolidine-3-carboxylic acid, C=CCOC(=O)N1CC[C@@](N[*:1])(C(=O)[*:2])C1; Phe(3,4-F2) = N[C@@H](Cc1ccc(F)c(F)c1)C(=O)O; S7 = C[C@@](CCCCCC=[*:3])(N[*:1])C(=O)[*:2]; Phe(4-F) = N[C@@H](Cc1ccc(F)cc1)C(=O)O; d(αMeF) = C[C@@](N)(Cc1ccccc1)C(=O)O; αAllylPro = C=CC[C@@]1(C(=O)O)CCCN1; 2Pal = N[C@@H](Cc1ccccn1)C(=O)O; 3Pal = N[C@@H](Cc1cccnc1)C(=O)O; 4Pal = N[C@@H](Cc1ccncc1)C(=O)O; R8 = C=CCCCCCC[C@@](C)(N)C(=O)O; Cha = N[C@@H](CC1CCCCC1)C(=O)O; hLeu = CC(C)CC[C@H](N)C(=O)O; Nle = CCCC[C@H](N)C(=O)O
attribute.measured: pEC50

>  <binder>
Ac-FDA[R8]DDAAFV[PyrS″][4Pal]WQ-NH2 (staple 4-11; not fully specified; printed as Ac-Phe-Asp-Ala-R8-Asp-Asp-Ala-Ala-Phe-Val-PyrS-4PyrA-Trp-Gln-NH2, Stapled peptide; also called Ac-Phe-Asp-Ala-R8-Asp-Asp-Ala-Ala-Phe-Val-PyrS-4PyrA-Trp-Gln-NH2) [I-84]

>  <attribute.measured>
pEC50

>  <prefix.operator>
≤

>  <assay.value>
5.00

$$$$
>  <binder>
Ac-FDA[R8]DDAAFV[PyrS][Cha]WQ-NH2 (staple 4-11, Stapled peptide; also called Ac-Phe-Asp-Ala-R8-Asp-Asp-Ala-Ala-Phe-Val-PyrS-Cha-Trp-Gln-NH2) [I-61]

>  <attribute.measured>
pEC50

>  <prefix.operator>
=

>  <assay.value>
5.05

$$$$
>  <binder>
Ac-FDA[R8]D[d(αMeF)]AAFV[PyrS″]FWQ-NH2 (staple 4-11, Stapled peptide; also called Ac-Phe-Asp-Ala-R8-Asp-aMeDF-Ala-Ala-Phe-Val-PyrS-Phe-Trp-Gln-NH2) [I-56]

>  <attribute.measured>
pEC50

>  <prefix.operator>
≤

>  <assay.value>
5.00

$$$$
>  <binder>
Ac-[αAllylPro]DA[B5(4)]DDAAFV[SdN]FWQ-NH2 (staple 1-4, 4-11, Stapled (stitched) peptide; also called Ac-PL3-Asp-Ala-B5-Asp-Asp-Ala-Ala-Phe-Val-SdN-Phe-Trp-Gln-NH2) [I-55]

>  <attribute.measured>
pEC50

>  <prefix.operator>
=

>  <assay.value>
5.62

$$$$
>  <binder>
Ac-ADI[RdN″]D[hLeu]AAFQ[S7]FWH-NH2 (staple 4-11, Stapled peptide; also called Ac-Ala-Asp-Ile-RdN-Asp-hLeu-Ala-Ala-Phe-Gln-S7-Phe-Trp-His-NH2) [I-71]

>  <attribute.measured>
pEC50

>  <prefix.operator>
≤

>  <assay.value>
5.00

$$$$
>  <binder>
Ac-FDA[R8]DDAA[Phe(3,4-F2)]V[PyrS]FWQ-NH2 (staple 4-11, Stapled peptide; also called Ac-Phe-Asp-Ala-R8-Asp-Asp-Ala-Ala-34FF-Val-PyrS-Phe-Trp-Gln-NH2) [I-79]

>  <attribute.measured>
pEC50

>  <prefix.operator>
=

>  <assay.value>
5.40

$$$$
>  <binder>
Ac-FDA[R8]DDAAFV[PyrS][2Pal]WQ-NH2 (staple 4-11, Stapled peptide; also called Ac-Phe-Asp-Ala-R8-Asp-Asp-Ala-Ala-Phe-Val-PyrS-2PyrA-Trp-Gln-NH2) [I-80]

>  <attribute.measured>
pEC50

>  <prefix.operator>
≤

>  <assay.value>
5.00

$$$$
>  <binder>
Ac-FDA[R8]DDAAFV[PyrS″][3Pal]WQ-NH2 (staple 4-11, Stapled peptide; also called Ac-Phe-Asp-Ala-R8-Asp-Asp-Ala-Ala-Phe-Val-PyrS-3PyrA-Trp-Gln-NH2) [I-82]

>  <attribute.measured>
pEC50

>  <prefix.operator>
≤

>  <assay.value>
5.00

$$$$
>  <binder>
Ac-FDA[R8]DDAAFV[PyrS″][2Pal]WQ-NH2 (staple 4-11, Stapled peptide; also called Ac-Phe-Asp-Ala-R8-Asp-Asp-Ala-Ala-Phe-Val-PyrS-2PyrA-Trp-Gln-NH2) [I-81]

>  <attribute.measured>
pEC50

>  <prefix.operator>
=

>  <assay.value>
5.01

$$$$
>  <binder>
Ac-FDA[R8]DDAAFV[PyrS]YWQ-NH2 (staple 4-11; not fully specified; printed as Ac-Phe-Asp-Ala-R8-Asp-Asp-Ala-Ala-Phe-Val-PyrS-Tyr-Trp-Gln-NH2, Stapled peptide; also called Ac-Phe-Asp-Ala-R8-Asp-Asp-Ala-Ala-Phe-Val-PyrS-Tyr-Trp-Gln-NH2) [I-63]

>  <attribute.measured>
pEC50

>  <prefix.operator>
≤

>  <assay.value>
5.00

$$$$
>  <binder>
Ac-FDA[R8]DDAA[Phe(4-F)]V[PyrS]FWQ-NH2 (staple 4-11, Stapled peptide; also called Ac-Phe-Asp-Ala-R8-Asp-Asp-Ala-Ala-4FF-Val-PyrS-Phe-Trp-Gln-NH2) [I-78]

>  <attribute.measured>
pEC50

>  <prefix.operator>
=

>  <assay.value>
5.13

$$$$
>  <binder>
Ac-FDA[R8]DDAA[Cha]V[PyrS″]FWQ-NH2 (staple 4-11; not fully specified; printed as Ac-Phe-Asp-Ala-R8-Asp-Asp-Ala-Ala-Cha-Val-PyrS-Phe-Trp-Gln-NH2, Stapled peptide; also called Ac-Phe-Asp-Ala-R8-Asp-Asp-Ala-Ala-Cha-Val-PyrS-Phe-Trp-Gln-NH2) [I-74]

>  <attribute.measured>
pEC50

>  <prefix.operator>
≤

>  <assay.value>
5.00

$$$$
>  <binder>
Ac-FDA[R8]DDAA[Nle]V[PyrS(3)]FWQ-NH2 (staple 4-11, Stapled peptide; also called Ac-Phe-Asp-Ala-R8-Asp-Asp-Ala-Ala-nLeu-Val-PyrS-Phe-Trp-Gln-NH2) [I-76]

>  <attribute.measured>
pEC50

>  <prefix.operator>
≤

>  <assay.value>
5.00

$$$$
>  <binder>
FDXADDAAFXAFWQ (not fully specified; N-terminal Ac; C-terminal NH2; R8 at 3 and S5 at 10, stapled, Stapled peptide; also called Ac-Phe-Asp-R8-Ala-Asp-Asp-Ala-Ala-Phe-S5-Ala-Phe-Trp-Gln-NH2) [I-48]

>  <attribute.measured>
pEC50

>  <prefix.operator>
≤

>  <assay.value>
5.00

$$$$
>  <binder>
Ac-ADI[RdN]DEAAFQ[S7]FWH-NH2 (staple 4-11, Stapled peptide; also called Ac-Ala-Asp-Ile-RdN-Asp-Glu-Ala-Ala-Phe-Gln-S7-Phe-Trp-His-NH2) [I-67]

>  <attribute.measured>
pEC50

>  <prefix.operator>
=

>  <assay.value>
6.81

$$$$
>  <binder>
Ac-ADI[RdN]D[Cha]AAFQ[S7]FWH-NH2 (staple 4-11; not fully specified; printed as Ac-Ala-Asp-Ile-RdN-Asp-Cha-Ala-Ala-Phe-Gln-S7-Phe-Trp-His-NH2, Stapled peptide; also called Ac-Ala-Asp-Ile-RdN-Asp-Cha-Ala-Ala-Phe-Gln-S7-Phe-Trp-His-NH2) [I-72]

>  <attribute.measured>
pEC50

>  <prefix.operator>
≤

>  <assay.value>
5.00

$$$$
>  <binder>
Ac-FDA[R8]DDAA[Cha]V[PyrS″]FWQ-NH2 (staple 4-11; not fully specified; printed as Ac-Phe-Asp-Ala-R8-Asp-Asp-Ala-Ala-Cha-Val-PyrS-Phe-Trp-Gln-NH2, Stapled peptide; also called Ac-Phe-Asp-Ala-R8-Asp-Asp-Ala-Ala-Cha-Val-PyrS-Phe-Trp-Gln-NH2) [I-75]

>  <attribute.measured>
pEC50

>  <prefix.operator>
≤

>  <assay.value>
5.00

$$$$
>  <binder>
Ac-[αAllylPro]DA[B5(21)]DDAAFV[SeN″]FWQ-NH2 (staple 1-4, 4-11; also: earlier-eluting HPLC isomer, E/Z not given here, Stapled (stitched) peptide; also called Ac-PL3-Asp-Ala-B5-Asp-Asp-Ala-Ala-Phe-Val-SeN-Phe-Trp-Gln-NH2) [I-53]

>  <attribute.measured>
pEC50

>  <prefix.operator>
=

>  <assay.value>
5.94

$$$$
>  <binder>
Ac-FDA[R8]DQAAFV[PyrS″]FWQ-NH2 (staple 4-11; not fully specified; printed as Ac-Phe-Asp-Ala-R8-Asp-Gln-Ala-Ala-Phe-Val-PyrS-Phe-Trp-Gln-NH2, Stapled peptide; also called Ac-Phe-Asp-Ala-R8-Asp-Gln-Ala-Ala-Phe-Val-PyrS-Phe-Trp-Gln-NH2) [I-59]

>  <attribute.measured>
pEC50

>  <prefix.operator>
=

>  <assay.value>
5.01

$$$$

The origin of these recorded values is patent US20240116985A1.
